Biological target: T1, full-length human Nectin-4 on cells (human, UniProt Q96NY8 32-510)
T1 construct: the cell is named under assay; also called CHO-Nectin-4 cells; Nectin-4-CHO
T1 sequence: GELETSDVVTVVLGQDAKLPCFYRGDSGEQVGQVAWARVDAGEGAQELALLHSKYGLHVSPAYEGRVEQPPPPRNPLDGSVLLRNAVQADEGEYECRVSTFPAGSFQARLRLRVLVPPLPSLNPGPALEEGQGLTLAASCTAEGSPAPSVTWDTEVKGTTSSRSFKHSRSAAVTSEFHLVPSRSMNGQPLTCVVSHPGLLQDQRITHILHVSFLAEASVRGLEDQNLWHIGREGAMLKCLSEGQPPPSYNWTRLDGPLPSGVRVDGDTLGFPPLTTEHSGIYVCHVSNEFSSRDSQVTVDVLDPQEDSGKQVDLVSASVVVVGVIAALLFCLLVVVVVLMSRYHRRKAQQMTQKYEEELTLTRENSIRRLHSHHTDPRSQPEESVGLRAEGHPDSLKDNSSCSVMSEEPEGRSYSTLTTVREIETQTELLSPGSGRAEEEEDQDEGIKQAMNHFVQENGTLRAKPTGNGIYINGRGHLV
Test: flow cytometry, CHO-Nectin-4 cells
Method: The binding specificity of the disclosed anti-Nectin-4 antibodies was also assessed by FACS. Briefly, CHO-Nectin-4 cells (vs. parental CHO cells) or endogenous cell lines expressing Nectin-4 (T-47D) were incubated with dilutions of purified recombinant antibodies. Cells were washed, and specific antibody binding was detected with Alexa 647 labeled goat anti-mouse IgG antibody. Flow cytometric analysis was performed on a flow cytometry instrument (Intellicyte, IQue plus, Sartorius). […]
pEC50: −log10 of the molar value.
observation type: pEC50

1. N4_mAb 7 (antibody, human IgG1, V domains shown, Tested as chimera (murine variable regions, human IgG1/kappa constants); not shown: human IgG1 constant region (Uniprot P01857); human Kappa light chain constant region (UniProt P01834)) VH: QVQLQQSGPELVKPGASVKMSCKASGYTFTTYYIHWVKQRPGQGLEWIGWIYPGNAGIKSNEKFKGKTTLTADKSSSTAYMLLSSLTSEDSAIYFCARGVYFFDYWGQGTTLTVSS VL: SIVMTQTPKFLLVSAGDRVTITCKASQSVNNDVSWFQQKPGQSPKLLIYYASNRYTGVPDRFSGSGYGTDFTFTITTVQAEDLAVYFCQQDYSSPYTFGGGTKLEIK :: 9.74
2. N4_mAb 5 (antibody, human IgG1, V domains shown, Tested as chimera (human IgG1/kappa constants); not shown: human IgG1 constant region (Uniprot P01857); human Kappa light chain constant region (UniProt P01834)) VH: EVQLQQSGPDLVKPGASVKISCKASGYSFTGHYMHWVKQSHGKSLEWIGRVNPNNGGSSYNQKFKDKAILTVDKSSTTAYMELRSLTSEDSAVYYCARDPLGGSYGFAYWGQGTLVTVSA VL: DIVLTQSPASLAVSLGQRATISCRASQSVTTSSYSYMHWYQQKPGQPPKLLIKYASNLESGVPARFSGSGSGTDFTLNIHPVEEEDTATYYCQHSWEIPYTFGGGTKLEMK :: 9.42
3. N4_mAb 3 (antibody, human IgG1, V domains shown, Tested as chimera (human IgG1/kappa constants); not shown: human IgG1 constant region (Uniprot P01857); human Kappa light chain constant region (UniProt P01834)) VH: EVQLQQSGAELVKPGASVKLSCTVSGFNIKDTYMHWVKQRPEQGLEWIGRIDPANGNTKYDPKFQGKATIIADKASNTAYLQLSSLTSEDAAVYYCAHYYGSSYFAMDCWGQGTSVTVSS VL: DIVMTQSHKFMSTSVGDRVSITCKASQDVSTAVAWYQQKPGQSPKLLIYWASTRHTGVPDRFTGSGSGTDYTLTISSVQTEDLALYYCQQHYSTPLTFGAGTKLELK :: 9.12
4. N4_mAb 8 (antibody, human IgG1, V domains shown, Tested as chimera (murine variable regions, human IgG1/kappa constants); not shown: human IgG1 constant region (Uniprot P01857); human Kappa light chain constant region (UniProt P01834)) VH: QVQLQQSGPVLVKPGASVRISCKASGYTFTSYYIHWVKQRPGQGLEWIGWIYPGNVNTKYNENFRDKATLTADKSSSTSYMQLSSLTSEDSAVYFCARGIYYFDYWGQGTTLTVSS VL: IIVMTQTPKFLLVSAGDRVTITCKASQSVNNDVAWYQEKPGQSPKLLIYYASNRDTGVPDRFTGSGYGTDFTFTISTVQAEDLAVYFCHQDYSSPFTFGSGTKLEIK :: 9.64
